Each entry below carries its reported SPOT intensity.
target: Myo3, P36006; test: SPOT array; details: median of control spots 468
Format: numeric value only, no unit, no commentary.

Below are worked cases with known answers.
binder: NLDRSKISLPDFDDE
SPOT intensity: 1
//
binder: DDEDVPPQLPTRTKS
SPOT intensity: 0
//
binder: SHRLWLYAAPKRPKT
SPOT intensity: 6
//
binder: YRRKSIPFAPHQITA
SPOT intensity: 0
//
binder: RKNRAPPQRPRFNRD
SPOT intensity: 61
//
binder: VDFTLPPPPPPPGLD
SPOT intensity: 491
//
binder: RRRDFGAPANKRPRR
SPOT intensity: 16
//
binder: VNFRRIPTGPDSPPT
SPOT intensity: 0
//
binder: NFKRLLPRDPSEKSS
SPOT intensity: 6
//
binder: RRRRRPHRIERPLSN
SPOT intensity: 7

// `APPLPPTAPPPPSLP` : SPOT intensity value = 537

Looking up `DAPASKPSVPPRNYF` , I found its SPOT intensity recorded as 0
